test: recombinant UMI read abundance after kanamycin selection (control-corrected) (log10(CPM+1)); higher = more efficient recombination; extreme values may be limits of the assay; sequences stand for … in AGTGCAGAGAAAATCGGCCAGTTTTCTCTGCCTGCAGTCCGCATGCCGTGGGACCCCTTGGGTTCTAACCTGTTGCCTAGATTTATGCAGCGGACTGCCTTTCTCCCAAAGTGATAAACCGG…AGGTTGGTTTCACT; site = the 11-nt donor;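 further: IS621 bridge recombinase in Escherichia coli cells against a fixed T5 target plasmid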
Kindly return yes (1) if reported recombinant UMI read abundance (log10) is no lower than 0.7; return no (0) if it is lower.

// query hey, is recombinant UMI read abundance (log10) for this one >= 0.7? TTTGTCACATGGACCGGTTTTCCCGGTAATCCGTATTTGGA (site TTTGTCACTTC)
// result no (0)

// query hey, is recombinant UMI read abundance (log10) for this one >= 0.7? GAAGAGGCATGGACCGGTTTTCCCGGTAATCCGTATTTGTA (site GAAGAGGCTTA)
// result yes (1)

// query hey, is recombinant UMI read abundance (log10) for this one >= 0.7? CAATGGCCATGGACCGGTTTTCCCGGTAATCCGTATTTGCA (site CAATGGCCTTG)
// result no (0)

// query hey, is recombinant UMI read abundance (log10) for this one >= 0.7? AGGGTTACATGGACCGGTTTTCCCGGTAATCCGTATTTGGG (site AGGGTTACTCC)
// result no (0)

// query hey, is recombinant UMI read abundance (log10) for this one >= 0.7? CAAGCGACATGGACCGGTTTTCCCGGTAATCCGTATTTGTG (site CAAGCGTCTCA)
// result yes (1)

// query hey, is recombinant UMI read abundance (log10) for this one >= 0.7? GTGCATGCATGGACCGGTTTTCCCGGTAATCCGTATTTGCT (site GTGCATGCTAC)
// result no (0)

// query hey, is recombinant UMI read abundance (log10) for this one >= 0.7? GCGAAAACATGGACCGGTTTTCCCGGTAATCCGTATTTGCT (site GCGAAAACTCG)
// result no (0)

// query hey, is recombinant UMI read abundance (log10) for this one >= 0.7? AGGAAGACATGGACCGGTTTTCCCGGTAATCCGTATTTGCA (site AGGAGGACTTG)
// result no (0)

// query hey, is recombinant UMI read abundance (log10) for this one >= 0.7? AACCGGCCATGGACCGGTTTTCCCGGTAATCCGTATTTGAT (site AACCGCCCTAT)
// result no (0)

// query hey, is recombinant UMI read abundance (log10) for this one >= 0.7? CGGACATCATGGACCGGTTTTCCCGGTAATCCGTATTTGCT (site CGGACATCTTG)
// result yes (1)

// query hey, is recombinant UMI read abundance (log10) for this one >= 0.7? CGATAATCATGGACCGGTTTTCCCGGTAATCCGTATTTGGT (site CGATCATCTAG)
// result no (0)

// query hey, is recombinant UMI read abundance (log10) for this one >= 0.7? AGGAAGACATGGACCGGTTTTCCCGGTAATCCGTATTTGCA (site AGCAAGGCTTG)
// result no (0)

// query hey, is recombinant UMI read abundance (log10) for this one >= 0.7? CAGAATCCATGGACCGGTTTTCCCGGTAATCCGTATTTGTC (site CGGAATCCTAA)
// result no (0)

// query hey, is recombinant UMI read abundance (log10) for this one >= 0.7? TTCTGAGCATGGACCGGTTTTCCCGGTAATCCGTATTTGCT (site TTCTGAGCTAG)
// result yes (1)

// query hey, is recombinant UMI read abundance (log10) for this one >= 0.7? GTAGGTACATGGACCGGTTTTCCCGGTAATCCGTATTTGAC (site GTAGATACTGT)
// result yes (1)

// query hey, is recombinant UMI read abundance (log10) for this one >= 0.7? CACGGCCCATGGACCGGTTTTCCCGGTAATCCGTATTTGGT (site CACGGCCCTAG)
// result no (0)

// query hey, is recombinant UMI read abundance (log10) for this one >= 0.7? CACGGGCCATGGACCGGTTTTCCCGGTAATCCGTATTTGTT (site CACGGACCTAA)
// result no (0)

// query hey, is recombinant UMI read abundance (log10) for this one >= 0.7? CCATTCCCATGGACCGGTTTTCCCGGTAATCCGTATTTGAC (site CCATTCCCTGT)
// result no (0)

// query hey, is recombinant UMI read abundance (log10) for this one >= 0.7? GAAGGTGCATGGACCGGTTTTCCCGGTAATCCGTATTTGAA (site GAAGGTGCTTT)
// result yes (1)

// query hey, is recombinant UMI read abundance (log10) for this one >= 0.7? GTAGTGGCATGGACCGGTTTTCCCGGTAATCCGTATTTGCG (site GTAGTGGCTCG)
// result yes (1)

// query hey, is recombinant UMI read abundance (log10) for this one >= 0.7? GGTCCACCATGGACCGGTTTTCCCGGTAATCCGTATTTGTA (site GGTCCAACTTA)
// result no (0)

// query hey, is recombinant UMI read abundance (log10) for this one >= 0.7? GAGAATACATGGACCGGTTTTCCCGGTAATCCGTATTTGCA (site TAGAATACTTG)
// result yes (1)

// query hey, is recombinant UMI read abundance (log10) for this one >= 0.7? ATTAAGACATGGACCGGTTTTCCCGGTAATCCGTATTTGGT (site ATTAAGACTAC)
// result yes (1)

// query hey, is recombinant UMI read abundance (log10) for this one >= 0.7? CGATCGACATGGACCGGTTTTCCCGGTAATCCGTATTTGTG (site CGATCGACTAA)
// result no (0)

// query hey, is recombinant UMI read abundance (log10) for this one >= 0.7? TACAGCGCATGGACCGGTTTTCCCGGTAATCCGTATTTGCG (site TACAGCGCTCG)
// result no (0)

// query hey, is recombinant UMI read abundance (log10) for this one >= 0.7? GTAGTGGCATGGACCGGTTTTCCCGGTAATCCGTATTTGCG (site GTAGTTGCTCG)
// result yes (1)

// query hey, is recombinant UMI read abundance (log10) for this one >= 0.7? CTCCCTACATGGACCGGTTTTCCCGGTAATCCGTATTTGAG (site ATCCCTACTCT)
// result no (0)

// query hey, is recombinant UMI read abundance (log10) for this one >= 0.7? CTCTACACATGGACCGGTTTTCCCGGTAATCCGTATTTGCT (site CTCTACACTAT)
// result yes (1)

// query hey, is recombinant UMI read abundance (log10) for this one >= 0.7? CGTTCCCCATGGACCGGTTTTCCCGGTAATCCGTATTTGTA (site GGTTCCCCTTA)
// result no (0)

// query hey, is recombinant UMI read abundance (log10) for this one >= 0.7? CGGCAGGCATGGACCGGTTTTCCCGGTAATCCGTATTTGAT (site CGGCAGGCTAT)
// result yes (1)

// query hey, is recombinant UMI read abundance (log10) for this one >= 0.7? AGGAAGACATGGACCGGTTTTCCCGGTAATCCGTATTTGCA (site AGCAAGACTTG)
// result yes (1)

// query hey, is recombinant UMI read abundance (log10) for this one >= 0.7? ATTGAGTCATGGACCGGTTTTCCCGGTAATCCGTATTTGGT (site ATTGAGTCTAC)
// result yes (1)

// query hey, is recombinant UMI read abundance (log10) for this one >= 0.7? AAGAAGTCATGGACCGGTTTTCCCGGTAATCCGTATTTGTA (site AAGAAGTCTTA)
// result yes (1)

// query hey, is recombinant UMI read abundance (log10) for this one >= 0.7? CTAGTACCATGGACCGGTTTTCCCGGTAATCCGTATTTGGC (site CTAGTATCTGT)
// result yes (1)

// query hey, is recombinant UMI read abundance (log10) for this one >= 0.7? TACCTCTCATGGACCGGTTTTCCCGGTAATCCGTATTTGAC (site TACCTCTCTGT)
// result no (0)

// query hey, is recombinant UMI read abundance (log10) for this one >= 0.7? GTGGAGGCATGGACCGGTTTTCCCGGTAATCCGTATTTGGG (site GTGGAGGCTCC)
// result yes (1)
